- Protocol: AUC (infinity) in CD1 mouse at 11.512 mg/kg administered via oral gavage by LC-MS/MS method
- Type: ADME, organism-based
- Parameters: dose 11.512 mg/kg, time infinity, route oral
- Condition Summary: in vivo, 11.51 mg/kg
Value Kind: AUC(0-inf)

Request the reported AUC(0-inf) associated with Cc1[nH]c(C)c(-c2ccc(-c3ccc(C(F)(F)F)cc3F)nc2)c(=O)c1Cl
226 µg·h/mL

###

- Protocol: AUC (infinity) in CD1 mouse at 10.36 mg/kg administered via oral gavage by LC-MS/MS method
- Assay type: ADME, organism-based
- Design: dose 10.36 mg/kg, route oral, time infinity
- Condition Summary: in vivo
Value Kind: AUC(0-inf)
Report the figure along with its unit, number first.

So what does the record say about AUC(0-inf) for Cc1[nH]c(C)c(-c2ccc(-c3ccc(OC(F)(F)F)cc3)nc2)c(=O)c1Br ?
118 µg·h/mL

###

- Protocol: Cmax in CD1 mouse at 8.3 mg/kg administered via oral gavage by LC-MS/MS method
- Assay type: ADME, organism-based
- Parameters: dose 8.3 mg/kg, route oral
- Condition Summary: in vivo
Value Kind: Cmax (ng/mL)
Kindly answer with a numeric value in ng/mL, unit omitted.

Quick one: Cmax for Cc1[nH]c(C)c(-c2ccc(OCc3ccc(OC(F)(F)F)cc3)nc2)c(=O)c1Cl ?
300

###

- Tested System: serum albumin (Homo sapiens)
- Sequence (P02768 whole entry): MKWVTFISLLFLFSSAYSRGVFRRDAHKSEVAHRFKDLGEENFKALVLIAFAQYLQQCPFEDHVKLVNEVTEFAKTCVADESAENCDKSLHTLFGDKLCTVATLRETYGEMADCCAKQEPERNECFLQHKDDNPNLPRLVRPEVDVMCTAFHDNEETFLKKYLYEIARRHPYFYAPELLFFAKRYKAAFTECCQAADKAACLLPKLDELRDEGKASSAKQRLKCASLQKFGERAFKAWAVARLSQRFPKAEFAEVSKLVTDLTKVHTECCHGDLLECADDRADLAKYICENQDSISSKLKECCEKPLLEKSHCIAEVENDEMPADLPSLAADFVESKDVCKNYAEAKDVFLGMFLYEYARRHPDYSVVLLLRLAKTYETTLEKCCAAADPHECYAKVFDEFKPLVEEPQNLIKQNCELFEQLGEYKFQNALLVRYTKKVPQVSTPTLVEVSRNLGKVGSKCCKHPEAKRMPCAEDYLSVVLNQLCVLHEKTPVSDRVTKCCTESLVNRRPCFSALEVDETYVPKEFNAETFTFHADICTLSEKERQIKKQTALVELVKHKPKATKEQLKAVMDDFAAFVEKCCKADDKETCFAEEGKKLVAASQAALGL
- Protocol: Binding affinity to human serum albumin by HPLC method
- Assay type: ADME
- Condition Summary: read-out: PB (converted)
Listed below: fraction unbound values for each entry.
Answer with a bare number; do not write a unit.

Guide cases for fraction unbound, answers given:
{"Sample Smiles": "Cc1[nH]c(C)c(-c2ccc(OCc3ccc(OC(F)(F)F)cc3)nc2)c(=O)c1Cl", "Value Reported": 0.03}
{"Sample Smiles": "Cc1[nH]c(C)c(-c2ccc(OCc3ccc(OC(F)(F)F)cc3)nc2)c(=O)c1Br", "Value Reported": 0.03}

Give its fraction unbound value. Item: Cc1[nH]c(C)c(-c2ccc(-c3ccc(OC(F)(F)F)cc3)nc2)c(=O)c1Cl
0.04

Entry Cc1[nH]c(C)c(-c2ccc(-c3ccc(C(F)(F)F)cc3)nc2)c(=O)c1Cl please
0.05

Also need Cc1[nH]c(C)c(-c2ccc(-c3ccc(OC(F)(F)F)cc3)nc2)c(=O)c1Br , thanks.
0.04

Try Cc1[nH]c(C)c(-c2ccc(-c3cccc(C(F)(F)F)c3)nc2)c(=O)c1Cl next.
0.05

###

- Protocol: Tmax in CD1 mouse at 10.36 mg/kg administered via oral gavage by LC-MS/MS method
- Type: ADME, organism-based
- Condition Summary: in vivo
Value Kind: Tmax (h)
Record the value in h, omitting the unit from your answer.

What value of Tmax has been reported for the following compound? Cc1[nH]c(C)c(-c2ccc(-c3ccc(OC(F)(F)F)cc3)nc2)c(=O)c1Br
10

###

- Protocol: Volume of distribution in CD1 mouse at 0.192 mg/kg, iv as bolus dose by LC-MS/MS method
- Type: ADME, organism-based
- Condition Summary: in vivo
Value Kind: Vd (L/kg)
The answer is to be given in L/kg; state only the numeric part.

Tell me the measured Vd of Cc1[nH]c(C)c(-c2ccc(-c3ccc(OC(F)(F)F)cc3)nc2)c(=O)c1Br , please.
0.91

###

- Protocol: Oral bioavailability in CD1 mouse at 10.757 mg/kg administered via gavage by LC-MS/MS method
- Assay type: ADME, organism-based
- Condition Summary: in vivo
Value Kind: bioavailability

Could you share which bioavailability value was measured for Cc1[nH]c(C)c(-c2ccc(-c3ccc(OC(F)(F)F)cc3)nc2)c(=O)c1Cl ?
54.9%

###

- Protocol: Half life in CD1 mouse at 1.45 mg/kg, iv as bolus dose by LC-MS/MS method
- Type: ADME, organism-based
- Condition Summary: in vivo
Value Kind: half-life

Value lookup for half-life; key = Cc1[nH]c(CO)c(-c2ccc(-c3ccc(OC(F)(F)F)cc3)nc2)c(=O)c1Cl
7.4 h

###

- Protocol: Oral bioavailability in CD1 mouse at 11.512 mg/kg administered via gavage by LC-MS/MS method
- Type: ADME, organism-based
- Condition Summary: in vivo
Value Kind: bioavailability

Give the measured bioavailability of Cc1[nH]c(C)c(-c2ccc(-c3ccc(C(F)(F)F)cc3F)nc2)c(=O)c1Cl .
30%

###

- Protocol: AUC (0 to t) in CD1 mouse at 8.7 mg/kg administered via oral gavage by LC-MS/MS method
- Format: ADME, organism-based
- Condition Summary: in vivo
Value Kind: AUC(0-t)

Request the reported AUC(0-t) associated with Cc1[nH]c(CO)c(-c2ccc(-c3ccc(OC(F)(F)F)cc3)nc2)c(=O)c1Cl
110 µg·h/mL

###

- Protocol: Oral bioavailability in CD1 mouse at 10.36 mg/kg administered via gavage by LC-MS/MS method
- Assay type: ADME, organism-based
- Condition Summary: in vivo
Value Kind: bioavailability (%)
The figure you give is taken to be in %; do not add the unit.

Fill in the blank: the reported bioavailability of Cc1[nH]c(C)c(-c2ccc(-c3ccc(OC(F)(F)F)cc3)nc2)c(=O)c1Br is ____.
49.1

###

- Protocol: Half life in CD1 mouse at 0.192 mg/kg, iv as bolus dose by LC-MS/MS method
- Type: ADME, organism-based
- Condition Summary: in vivo
Value Kind: half-life (h)
Respond with the bare value in h.

Consider the molecule Cc1[nH]c(C)c(-c2ccc(-c3ccc(OC(F)(F)F)cc3)nc2)c(=O)c1Br and give its measured half-life.
14.6

###

- Protocol: Oral bioavailability in CD1 mouse at 9.354 mg/kg administered via gavage by LC-MS/MS method
- Format: ADME, organism-based
- Condition Summary: in vivo
Value Kind: bioavailability (%)
Write down the numeric answer in % and omit the unit.

Would you kindly share the measured bioavailability for Cc1[nH]c(C)c(-c2ccc(-c3cccc(C(F)(F)F)c3)nc2)c(=O)c1Cl ?
38.7

###

- Protocol: Clearance in CD1 mouse at 0.211 mg/kg, iv as bolus dose by LC-MS/MS method
- Type: ADME, organism-based
- Condition Summary: in vivo
Value Kind: clearance (mL/min/kg)
Give the value in mL/min/kg but do not write mL/min/kg after it.

// returns reported clearance for input Cc1[nH]c(C)c(-c2ccc(-c3ccc(C(F)(F)F)cc3Cl)nc2)c(=O)c1Cl
1.11

###

The compounds listed here are annotated with their Vd.
- Protocol: Volume of distribution in CD1 mouse at […], iv as bolus dose by LC-MS/MS method
- Assay type: ADME, organism-based
- Condition Summary: in vivo
Value expressed in L/kg; do not type the unit.

{"Sample Smiles": "Cc1[nH]c(C)c(-c2ccc(OCc3ccc(OC(F)(F)F)cc3)nc2)c(=O)c1Cl", "Vd, L/kg": 1.26}

For the next question, use this compound.
Consider the compound shown here: Cc1[nH]c(C)c(-c2ccc(-c3ccc(C(F)(F)F)cc3F)nc2)c(=O)c1Cl What is its recorded Vd?
0.75

###

- Protocol: Clearance in CD1 mouse at 0.192 mg/kg, iv as bolus dose by LC-MS/MS method
- Type: ADME, organism-based
- Condition Summary: in vivo
Value Kind: clearance (mL/min/kg)
Please respond with the number in mL/min/kg and leave the unit unwritten.

Name the reported clearance value associated with the compound Cc1[nH]c(C)c(-c2ccc(-c3ccc(OC(F)(F)F)cc3)nc2)c(=O)c1Br
0.72

###

- Protocol: Tmax in CD1 mouse at 4.42 mg/kg administered via oral gavage by LC-MS/MS method
- Format: ADME, organism-based
- Condition Summary: in vivo
Value Kind: Tmax (h)
Could you give me the number in h? Just the number is fine.

What value of Tmax has been recorded for this entry: Cc1[nH]c(C)c(-c2ccc(-c3ccc(C(F)(F)F)cc3)nc2)c(=O)c1Cl
10

###

- Protocol: AUC (infinity) in CD1 mouse at 8.7 mg/kg administered via oral gavage by LC-MS/MS method
- Type: ADME, organism-based
- Parameters: dose 8.7 mg/kg, route oral, time infinity
- Condition Summary: in vivo
Value Kind: AUC(0-inf) (µg·h/mL)
Please respond with the number in µg·h/mL and leave the unit unwritten.

Please report the recorded AUC(0-inf) for Cc1[nH]c(CO)c(-c2ccc(-c3ccc(OC(F)(F)F)cc3)nc2)c(=O)c1Cl .
111

###

- Protocol: Clearance in CD1 mouse at 1.45 mg/kg, iv as bolus dose by LC-MS/MS method
- Type: ADME, organism-based
- Condition Summary: in vivo
Value Kind: clearance (mL/min/kg)
Please give a number only; it is taken to be in mL/min/kg.

# input compound: Cc1[nH]c(CO)c(-c2ccc(-c3ccc(OC(F)(F)F)cc3)nc2)c(=O)c1Cl ; wanted: its clearance
1.76

###

- Protocol: Cmax in CD1 mouse at 4.42 mg/kg administered via oral gavage by LC-MS/MS method
- Format: ADME, organism-based
- Set-up: dose 4.42 mg/kg, route oral
- Condition Summary: in vivo
Value Kind: Cmax (ng/mL)
Write it as a number; the unit ng/mL goes unstated.

Requested field: Cmax. Item: Cc1[nH]c(C)c(-c2ccc(-c3ccc(C(F)(F)F)cc3)nc2)c(=O)c1Cl
3310
